biological target: PD-L1 (Homo sapiens); assay: PD-L1 relative quantification by flow cytometry in HT-29; format: cell-based; parameters: endogenous in cells; host or cells: HT-29; conditions: HT-29, 20 µM, 24 h, relative to DMSO control = 100
Sequence (Q9NZQ7 19-290): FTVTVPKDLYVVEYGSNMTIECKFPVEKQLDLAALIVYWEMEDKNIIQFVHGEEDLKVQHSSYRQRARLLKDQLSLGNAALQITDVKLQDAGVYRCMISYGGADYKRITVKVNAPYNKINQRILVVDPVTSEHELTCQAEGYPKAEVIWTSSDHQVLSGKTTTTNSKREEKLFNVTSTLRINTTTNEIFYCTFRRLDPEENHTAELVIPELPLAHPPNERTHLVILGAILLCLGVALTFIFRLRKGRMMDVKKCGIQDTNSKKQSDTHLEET
Readout name: Total PD-L1 (%)

Worked cases, answers included:
Given the entry `COc1ccc(COc2cccc(NC(=O)Nc3ccc(F)cc3)c2)cc1` , report its measured Total PD-L1 (%). 71

Given the entry CNC(=O)c1cc(Oc2ccc(NC(=O)Nc3ccc(Cl)c(C(F)(F)F)c3)cc2)ccn1 [Sorafenib, sorafenib, reference compound] , report its measured Total PD-L1 (%). 96

Given the entry `COc1ccc(COc2cccc(NC(=O)Oc3ccccc3)c2)cc1` , report its measured Total PD-L1 (%). 68

I = COc1ccc(COc2cccc(NC(=O)Nc3ccc(OC)cc3)c2)cc1
II = COc1ccc(COc2cccc(NC(=O)Nc3ccc(Br)cc3)c2)cc1
III = Cc1c(COc2ccc(CN3CCCCC3C(=O)O)cc2Br)cccc1-c1ccccc1 (stereo not drawn) [BMS-8, reference compound]
Which order do these items take when sorted by rising Total PD-L1 (%)? List them. Labels, requested order. II, III, I

====

tested on: ZAP70; assay: Immunoblotting of OT-1 CTL signaling proteins: ZAP70; assay type: cell-based, mice; details: OT-1, 20 μM, 24 h
Below is a list of entries, each paired with its recorded ZAP-70 protein expression (Western blot quantification) value.
Give a plain numeric answer without units written out.

Given the entry `COc1ccc(COc2cccc(NC(=O)Nc3ccc(Br)cc3)c2)cc1` , report its measured ZAP-70 protein expression (Western blot quantification). 37

---
Given the entry `COc1ccc(COc2cccc(NC(=O)Nc3ccc(F)cc3)c2)cc1` , report its measured ZAP-70 protein expression (Western blot quantification). 34

Given the entry `COc1ccc(COc2cccc(NC(=O)Nc3ccc(OC)cc3)c2)cc1` , report its measured ZAP-70 protein expression (Western blot quantification). 38

Given the entry `COc1ccc(COc2cccc(NC(=O)Oc3ccccc3)c2)cc1` , report its measured ZAP-70 protein expression (Western blot quantification). 54

====

test system: HT-29 cells; experiment: Cancer cell viability in monoculture and co-cultures with THP-1 by flow cytometry; type: cell-based, human; details: Homo sapiens; HT-29 monoculture, 20 μM; read-out: cancer cell viability (%), Monocult. HT-29
Readout name: viability at 20 µM (%)
Note: unit % is implicit; provide only the numeric part.

Worked cases, answers included:
Given the entry `COc1ccc(COc2cccc(NC(=O)Nc3ccc(OC)cc3)c2)cc1` , report its measured viability at 20 µM. 95

Given the entry `COc1ccc(COc2cccc(NC(=O)Nc3ccc(F)cc3)c2)cc1` , report its measured viability at 20 µM. 89

Given the entry Cc1c(COc2ccc(CN3CCCCC3C(=O)O)cc2Br)cccc1-c1ccccc1 (centres unmarked) [BMS-8, reference compound] , report its measured viability at 20 µM. 102

Given the entry `COc1ccc(COc2cccc(NC(=O)Oc3ccccc3)c2)cc1` , report its measured viability at 20 µM. 82

# next molecule below
Given the entry `COc1ccc(COc2cccc(NC(=O)Nc3ccc(Br)cc3)c2)cc1` , report its measured viability at 20 µM. 86

====

tested on: CD11b; assay: CD11b relative quantification by flow cytometry in co-cultured THP-1; type: cell-based, human; conditions: membrane THP-1, 1:5 HT-29/THP-1; 24 h, 20 μM, related to non-treated cells
Readout name: % CD11b (%)
Note: unit % is implicit; provide only the numeric part.

Given the entry `COc1ccc(COc2cccc(NC(=O)Nc3ccc(Br)cc3)c2)cc1` , report its measured % CD11b. 91

Given the entry `COc1ccc(COc2cccc(NC(=O)Nc3ccc(F)cc3)c2)cc1` , report its measured % CD11b. 92

Given the entry `COc1ccc(COc2cccc(NC(=O)Oc3ccccc3)c2)cc1` , report its measured % CD11b. 78

Given the entry Cc1c(COc2ccc(CN3CCCCC3C(=O)O)cc2Br)cccc1-c1ccccc1 (centres unmarked) [BMS-8, reference compound] , report its measured % CD11b. 91

# next molecule below
Given the entry `COc1ccc(COc2cccc(NC(=O)Nc3ccc(OC)cc3)c2)cc1` , report its measured % CD11b. 95
